Values were extracted from patent US20240270821A1.

- measured.on: hGLP-1R (Homo sapiens, UniProt P43220)
- Sequence (P43220 24-463): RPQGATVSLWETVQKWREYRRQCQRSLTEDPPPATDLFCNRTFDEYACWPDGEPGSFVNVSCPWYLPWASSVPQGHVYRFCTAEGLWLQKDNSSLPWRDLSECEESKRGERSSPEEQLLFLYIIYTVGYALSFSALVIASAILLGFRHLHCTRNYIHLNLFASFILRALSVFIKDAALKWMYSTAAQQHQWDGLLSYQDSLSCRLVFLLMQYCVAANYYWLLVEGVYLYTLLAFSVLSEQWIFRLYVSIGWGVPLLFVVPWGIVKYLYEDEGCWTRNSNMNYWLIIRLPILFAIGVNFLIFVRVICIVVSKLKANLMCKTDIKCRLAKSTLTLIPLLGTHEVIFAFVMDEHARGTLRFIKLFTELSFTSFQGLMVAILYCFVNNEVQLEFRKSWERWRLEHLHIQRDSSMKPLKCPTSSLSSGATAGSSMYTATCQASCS
- test.description: cell-based or functional assay
Please enter yes where Relative cAMP EC50 is greater than or equal to 2 nM, and no where it is lower.

>  <binder>
YXQGTFTSDXSKXLDKKAQXAFIEYLIEAGESSGEPPPSGS (synthetic construct; SITE 2: note = 2-Aminoisobutyric Acid; SITE 10: note = 3-(4-Pyridyl)-L-alanine; SITE 13: note = alpha-methyl-leucine; SITE 17: note = Lysine is chemically modified through conjugation of the epsilon-amino group of the Lysine side chain with (2-[2-(2-Amino-ethoxy)-ethoxy]-acetyl)) [Example 284]

>  <label.value>
no

$$$$
>  <binder>
YXQGTFTSDXSKXLDKKAQXAFIEYLIAXGESSGEPPPSGE (synthetic construct; SITE 2: note = 2-Aminoisobutyric Acid; SITE 10: note = 3-(4-Pyridyl)-L-alanine; SITE 13: note = alpha-methyl-leucine; SITE 17: note = Lysine is chemically modified through conjugation of the epsilon-amino group of the Lysine side chain with (2-[2-(2-Amino-ethoxy)-ethoxy]-acetyl)) [Example 286]

>  <label.value>
yes

$$$$
>  <binder>
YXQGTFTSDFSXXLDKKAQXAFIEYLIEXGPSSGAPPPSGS (synthetic construct; SITE 2: note = 2-Aminoisobutyric Acid; SITE 12: note = (S)-2,4-diaminobutanoic acid; SITE 13: note = alpha-methyl-leucine; SITE 17: note = Lysine is chemically modified through conjugation of the epsilon-amino group of the Lysine side chain with (2-[2-(2-Amino-ethoxy)-ethoxy]-ac)) [Example 799]

>  <label.value>
no

$$$$
>  <binder>
YXQGTXTSDXXIXLDXKAQXEFIEXLIEGGPPSGEPPPEGE (non-natural residues; lipidated Lys AEEA-γGlu-C18 diacid; C-term amide; synthetic construct; SITE 2: note = 2-Aminoisobutyric Acid; SITE 6: note = alpha-methyl-2-fluoro-L-phenylalanine; SITE 10: note = 3-(4-Pyridyl)-L-alanine; SITE 11: note = alpha-methyl-L-serine; SITE 13: note = alpha-methyl-leucine; SITE 16: note = L-ornithine; SITE 17: note = Lysine is chemically mo) [Example 1191]

>  <label.value>
no

$$$$

Prompt: Does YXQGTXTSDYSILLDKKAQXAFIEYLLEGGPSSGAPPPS (synthetic construct; SITE 2: note = 2-Aminoisobutyric Acid; SITE 6: note = alpha-methyl-L-phenylalanine; SITE 17: note = Lysine is chemically modified through conjugation of the epsilon-amino group of the Lysine side chain with (2-[2-(2-Amino-ethoxy)-ethoxy]-acetyl)2-(gamma-Glu)-CO-(CH2 )16-CO2H; SI) [Example 419] have a reported Relative cAMP EC50 of at least 2 nM?
Response: no
